Tested on: tetA promoter (PtetA)-lacZ reporter in E. coli KM3
Assay type: cell-based
Settings: Table 4; thifensulfuron 20 μg/ml (20 ppm); 48 hrs at 30° C.
I'd be grateful if you could share measured relative β-galactosidase activity, inducer Ts for these entries.
Output spec: single numeric token, no unit.

Provide measured relative β-galactosidase activity, inducer Ts value, entry: L1-28: library L1 hit, sulfonylurea-responsive TetR(B) variant (protein, Sulfonylurea responsive repressor L1-28) MGSRLDKSKVINSALELLNEVGIEGLTTRKLAQKLGVEQPTLYWHVKNKRALLDALAIEMLDRHATHFCPLEGESWQDFLRNNAKSMRCALLSHRDGAKVWLGTAWTEKQYETPENVLAFLCQQGFSLENALYASRAVVTFTLGCVLTDQEKQVAKEERETPTTDSMPPLLRQAWELLDHQGAEPAFLFGLELIICGLEKQLKCESGS 0.1

Provide measured relative β-galactosidase activity, inducer Ts value, entry: L1-38: library L1 hit, sulfonylurea-responsive TetR(B) variant (protein, Sulfonylurea responsive repressor L1-38) MGSRLDKSKVINSALELLNEVGIEGLTTRKLAQKLGVEQPTLYWHVKNKRALLDALAIEMADRHHTHFCPLEGESWQDFLRNNAKSMRCALLSHRDGAKVWLGTAWTEKQYETTENMLAFLCQQGFSLENALYAWRAVTMFTLGCVLRDQEWQVAKEERETPTTDSMPPLLRQALELGDHQGAEPAFLFGLELIICGLEKQLKCESGS 16.7

Provide measured relative β-galactosidase activity, inducer Ts value, entry: L1-20: library L1 hit, sulfonylurea-responsive TetR(B) variant, SEQ ID NO: 6 (protein, Sulfonylurea responsive repressor L1-20) MGSRLDKSKVINSALELLNEVGIEGLTTRKLAQKLGVEQPTLYWHVKNKRALLDALAIEMMDRHQTHFCPLEGESWQDFLRNNAKSMRCALLSHRDGAKVFLGTAWTEKQYETVENLLAFLCQQGFSLENALYALNAVATFTLGCVLWDQEKQVAKEERETPTTDSMPPLLRQAHELGDHQGAEPAFLFGLELIICGLEKQLKSESGS 2.6
